- Tested On: Neu5Ac(a2-3)Gal(b1-4)GlcNAc(b1-2)Man(a1-3)[Neu5Ac(a2-3)Gal(b1-4)GlcNAc(b1-2)Man(a1-6)]Man(b1-4)GlcNAc(b1-4)GlcNAc
- Protocol Details: glycan array binding signal (z-score within array); higher = stronger binding
- Condition: glycan notation: IUPAC condensed, linker removed
This is one part of a sample in which the strongest signals are shown more often than they occur.
Measured Property: glycan array binding signal (z-score)
# answer = number (no unit)

[[record]]
binder = "MAA (Maackia amurensis), P0DKL3 (protein) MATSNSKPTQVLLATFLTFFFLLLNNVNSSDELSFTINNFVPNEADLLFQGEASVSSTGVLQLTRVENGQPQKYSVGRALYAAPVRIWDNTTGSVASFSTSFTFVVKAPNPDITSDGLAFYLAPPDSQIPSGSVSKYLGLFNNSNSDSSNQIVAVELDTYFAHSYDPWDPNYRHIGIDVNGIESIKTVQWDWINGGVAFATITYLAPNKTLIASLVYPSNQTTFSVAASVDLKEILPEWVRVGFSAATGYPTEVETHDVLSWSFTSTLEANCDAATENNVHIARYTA"
measured_property = "glycan array binding signal (z-score)"
measurement = 1.17

[[record]]
binder = "PNA (Arachis hypogaea), P02872 (protein) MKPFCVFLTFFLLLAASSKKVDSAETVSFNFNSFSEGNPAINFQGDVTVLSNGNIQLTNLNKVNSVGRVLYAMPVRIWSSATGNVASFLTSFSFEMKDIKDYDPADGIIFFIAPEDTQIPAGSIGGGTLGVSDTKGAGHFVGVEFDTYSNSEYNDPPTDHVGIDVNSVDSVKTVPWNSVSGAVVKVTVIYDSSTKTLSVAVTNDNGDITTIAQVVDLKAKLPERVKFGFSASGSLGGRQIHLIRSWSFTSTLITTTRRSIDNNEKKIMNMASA"
measured_property = "glycan array binding signal (z-score)"
measurement = -0.148


Please look at the following binder next.
Q: Name the reported glycan array binding signal (z-score) value associated with the binder Ovorubin (Pomacea canaliculata), J7I2T6 (protein) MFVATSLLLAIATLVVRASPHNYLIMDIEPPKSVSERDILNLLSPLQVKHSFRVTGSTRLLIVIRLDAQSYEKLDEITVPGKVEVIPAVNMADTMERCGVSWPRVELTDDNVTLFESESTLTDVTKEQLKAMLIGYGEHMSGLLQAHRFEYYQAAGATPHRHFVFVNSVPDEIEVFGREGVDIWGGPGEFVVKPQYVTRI
Result: -0.45
